Molecular target: T1, IFNAR-1 on human cells (human, UniProt P17181 28-557)
T1 sequence (looked up): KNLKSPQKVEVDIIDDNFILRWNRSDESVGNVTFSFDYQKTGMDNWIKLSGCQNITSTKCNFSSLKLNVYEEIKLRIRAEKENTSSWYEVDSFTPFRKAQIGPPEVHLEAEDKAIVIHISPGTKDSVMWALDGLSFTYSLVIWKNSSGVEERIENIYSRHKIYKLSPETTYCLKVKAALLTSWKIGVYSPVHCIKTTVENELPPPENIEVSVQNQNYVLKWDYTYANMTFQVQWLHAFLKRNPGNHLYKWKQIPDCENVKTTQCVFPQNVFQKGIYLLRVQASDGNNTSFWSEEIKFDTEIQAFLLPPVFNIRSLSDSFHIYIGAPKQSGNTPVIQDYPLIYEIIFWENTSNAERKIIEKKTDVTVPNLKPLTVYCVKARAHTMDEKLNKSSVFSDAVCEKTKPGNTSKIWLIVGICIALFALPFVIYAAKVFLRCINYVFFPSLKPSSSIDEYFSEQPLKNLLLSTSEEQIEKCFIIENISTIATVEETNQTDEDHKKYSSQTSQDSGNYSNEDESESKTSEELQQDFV
Test: cell-based or functional assay
assay.readout: ISRE-RG Reporter (U937) IC50, interferon α2b (nM)
# unit: nM | format: bare number

Some binders with recorded ISRE-RG Reporter (U937) IC50, interferon α2b:
binder	recorded.result
murine monoclonal antibody 64G12 (antibody, V domains shown, Mouse IgG1, kappa light chain; also called 64G12 (mouse IgG1); murine anti-IFNAR-1 mAb 64G12) VH: QVTLKESGPGILKPSQTLSLTCSFSGFSLSTSGMGIGWIRQPSGKGLEWLAHIWWDDDKYYNPSLKSQLTISRDTSTNQVFLNITSVDTVDTATYYCGRNYYPYDAWFDYWGQGTLVTVS VL: EIVLTQSPTTMAASPGEKITITCSASSSINSNHLHWYQQKPGFSPKVLIYRTSILASGVPTRFSGSGSGTSYSLTIGTMEAEDVATYYCQQGSNIPFTFGSGTELEIKR	5.8
H3K1 (IgG4) (antibody, V domains shown, also called H3K1 standard; humanized anti-IFNAR-1 mAb H3K1) VH: EVQLVESGGGLVQPGGSLRLSCAFSGFTLSTSGMGIGWVRQAPGKGLEWVAHIWWDDDKYYNPSLKSRFTISRDTSKNTVYLQMNSLRAEDTAVYYCARNYYPYDAWFDYWGQGTLVTVS VL: DIQMTQSPSSLSASVGDRVTITCSASSSINSNHLHWYQQKPGKAPKLLIYRTSILASGVPSRFSGSGSGTSFTLTISSLQPEDFATYYCQQGSNIPFTFGQGTKVEIKR	21.5

Prompt line: Fill in ISRE-RG Reporter (U937) IC50, interferon α2b for record H3K1 (IgG1) (antibody, V domains shown) VH: EVQLVESGGGLVQPGGSLRLSCAFSGFTLSTSGMGIGWVRQAPGKGLEWVAHIWWDDDKYYNPSLKSRFTISRDTSKNTVYLQMNSLRAEDTAVYYCARNYYPYDAWFDYWGQGTLVTVS VL: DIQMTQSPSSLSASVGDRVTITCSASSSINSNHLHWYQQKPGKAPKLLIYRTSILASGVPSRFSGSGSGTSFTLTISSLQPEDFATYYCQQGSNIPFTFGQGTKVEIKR
Response line: 2.7
